assay target: Nitric oxide synthase 1 (Rattus norvegicus)
Sequence (P29476 whole entry): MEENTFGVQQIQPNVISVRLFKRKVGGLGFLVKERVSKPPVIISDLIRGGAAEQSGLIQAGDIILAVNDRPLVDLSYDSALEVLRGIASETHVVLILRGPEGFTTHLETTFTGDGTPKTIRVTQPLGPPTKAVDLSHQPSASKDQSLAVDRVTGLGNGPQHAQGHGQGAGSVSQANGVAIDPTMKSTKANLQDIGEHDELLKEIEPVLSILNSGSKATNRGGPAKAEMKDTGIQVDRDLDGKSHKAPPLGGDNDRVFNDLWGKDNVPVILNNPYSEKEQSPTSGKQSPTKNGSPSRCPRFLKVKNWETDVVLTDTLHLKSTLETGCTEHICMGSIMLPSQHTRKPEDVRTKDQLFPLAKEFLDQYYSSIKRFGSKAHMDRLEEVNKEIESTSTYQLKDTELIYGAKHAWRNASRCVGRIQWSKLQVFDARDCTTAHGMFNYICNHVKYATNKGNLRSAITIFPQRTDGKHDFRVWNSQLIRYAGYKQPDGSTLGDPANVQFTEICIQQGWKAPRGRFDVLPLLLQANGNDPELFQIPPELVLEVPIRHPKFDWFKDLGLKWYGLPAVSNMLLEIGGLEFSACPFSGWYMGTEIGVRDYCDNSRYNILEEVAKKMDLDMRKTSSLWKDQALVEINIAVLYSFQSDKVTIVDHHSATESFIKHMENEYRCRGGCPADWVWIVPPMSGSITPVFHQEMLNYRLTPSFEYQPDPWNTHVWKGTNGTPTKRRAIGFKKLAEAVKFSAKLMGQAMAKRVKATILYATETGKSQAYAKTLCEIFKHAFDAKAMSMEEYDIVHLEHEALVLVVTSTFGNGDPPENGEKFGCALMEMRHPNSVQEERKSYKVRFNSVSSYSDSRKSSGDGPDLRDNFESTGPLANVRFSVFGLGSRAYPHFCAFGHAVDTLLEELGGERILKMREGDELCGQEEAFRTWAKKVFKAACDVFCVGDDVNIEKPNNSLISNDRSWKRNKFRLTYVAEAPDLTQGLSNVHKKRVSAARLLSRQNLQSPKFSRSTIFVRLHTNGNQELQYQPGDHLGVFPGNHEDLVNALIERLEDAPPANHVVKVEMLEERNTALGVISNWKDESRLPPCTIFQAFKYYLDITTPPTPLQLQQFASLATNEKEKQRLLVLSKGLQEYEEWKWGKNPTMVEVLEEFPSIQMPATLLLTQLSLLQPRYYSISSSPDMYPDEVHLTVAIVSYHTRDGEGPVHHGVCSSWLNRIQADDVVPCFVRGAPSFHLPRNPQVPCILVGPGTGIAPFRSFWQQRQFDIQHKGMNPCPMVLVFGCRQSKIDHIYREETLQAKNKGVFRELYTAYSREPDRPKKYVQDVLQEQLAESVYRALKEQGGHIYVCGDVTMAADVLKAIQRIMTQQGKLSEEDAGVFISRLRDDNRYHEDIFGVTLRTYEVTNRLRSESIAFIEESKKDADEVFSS
metric: Ki
Param answer (str): number followed by unit.

Q) Form field: reported Ki of N=C(NCCC[C@H](N)C(=O)NC1CNC(C(N)=O)C1)N[N+](=O)[O-] (single isomer, unassigned)
A) 1100 nM

====

assay target: Nitric oxide synthase, inducible (Mus musculus)
assay name: Inhibitory activity against inducible nitric oxide synthase (iNOS) at 100 uM
Set-up: scale not given: the % may be the effect or the level left
Activity values for the compounds below.
Dear colleague, please return just the value in %, with no unit written.

Recorded Activity, per entry:
NC(=O)[C@@H]1C[C@H](NC(=O)[C@@H](N)CCC/N=C(\N)N[N+](=O)[O-])CN1 | 95
NC(=O)[C@@H]1C[C@@H](NC(=O)[C@H](N)CCC/N=C(\N)N[N+](=O)[O-])CN1 | 97
N=C(NCCC[C@@H](N)C(=O)NC1CNC(C(N)=O)C1)N[N+](=O)[O-] (single isomer, unassigned) | 96
NC(=O)[C@@H]1C[C@H](NC(=O)[C@H](N)CCC/N=C(\N)N[N+](=O)[O-])CN1 | 96

Q) Form field: reported Activity of N=C(NCCC[C@@H](N)C(=O)N[C@H]1CNC(C(N)=O)C1)N[N+](=O)[O-] (single isomer, unassigned)
A) 97

Q) Form field: reported Activity of N=C(NCCC[C@H](N)C(=O)N[C@H]1CNC(C(N)=O)C1)N[N+](=O)[O-] (single isomer, unassigned)
A) 94

Q) Form field: reported Activity of NC(=O)[C@@H]1C[C@@H](NC(=O)[C@@H](N)CCC/N=C(\N)N[N+](=O)[O-])CN1
A) 10

Q) Form field: reported Activity of N=C(NCCC[C@H](N)C(=O)NC1CNC(C(N)=O)C1)N[N+](=O)[O-] (single isomer, unassigned)
A) 78
